# assay-procedure: Metabolic stability in human liver microsomes assessed as intrinsic clearance per mg of protein at 2 uM and mesured upto 60 mins in presence of NADPH by UHPLC-MS analysis
# Assay type: ADME, Microsome
# condition-notes: microsomes, 1 h, 2 µM
Below: a set of entries, each annotated with reported microsomal intrinsic clearance.
readout-label: microsomal intrinsic clearance

compound: COc1cnc(Nc2cccc(S(N)(=O)=O)c2)nc1N1CCN(c2ccccc2)CC1
test-value: 18 µL/min/mg
--
compound: COc1cnc(Nc2cccc(S(N)(=O)=O)c2)nc1N1CCN(c2ccccc2)C(C)C1 (stereo unspecified)
test-value: 23 µL/min/mg
--
compound: Cn1c(-c2ccc3cnccc3c2)nc2ccc(C(=O)NCc3cccc(C(N)=O)c3)cc21
test-value: 20 µL/min/mg
--
compound: CCOc1cnc(Nc2cccc(S(N)(=O)=O)c2)nc1N1CCN(c2ccccc2)C(=O)C1
test-value: 19 µL/min/mg
--
compound: COc1cnc(Nc2cccc(S(N)(=O)=O)c2)nc1N1CC(F)(c2ccccc2)C1
test-value: 8 µL/min/mg
--
compound: COc1cnc(Nc2cccc(S(N)(=O)=O)c2)nc1N1CCN(c2ccccc2)CC1C (stereo unspecified)
test-value: 18 µL/min/mg
